test: Cytotoxicity against human HepG2(2.2.15) cells by MTT assay; type: cell-based; conditions: HepG2(2.2.15) cells
propertyName: CC50 (µM)

smilesNotation	unitInfo	qualifierSymbol	quantitativeReadout
CC(=O)[C@]1(OC(=O)CCCC(=O)O)CC[C@@]2(O)[C@]1(C)[C@H](OC(=O)/C=C(\C)C(C)C)C[C@@H]1[C@@]3(C)CC[C@H](OC(=O)CCCC(=O)O)CC3=CC[C@]12O	µM	>	268
CC(=O)N1CCC(C(=O)O[C@H]2CC[C@@]3(C)C(=CC[C@]4(O)[C@@H]3C[C@@H](OC(=O)/C=C(\C)C(C)C)[C@@]3(C)[C@]4(O)CC[C@@]3(O)C(C)=O)C2)CC1	µM	=	62.1
CC(=O)[C@]1(O)CC[C@@]2(O)[C@]1(C)[C@H](OC(=O)/C=C(\C)C(C)C)C[C@@H]1[C@@]3(C)CC[C@H](OP(=O)(Oc4ccccc4)Oc4ccccc4)CC3=CC[C@]12O	µM	>	1940
CC(=O)[C@]1(O)CC[C@@]2(O)[C@]1(C)[C@H](OC(=O)/C=C(\C)C(C)C)C[C@@H]1[C@@]3(C)CC[C@H](OC(=O)c4ccc(Br)cn4)CC3=CC[C@]12O	µM	=	48.4
CC(=O)[C@]1(O)CC[C@@]2(O)[C@]1(C)[C@H](OC(=O)/C=C(\C)C(C)C)C[C@@H]1[C@@]3(C)CC[C@H](O)C[C@@]34O[C@H]4C[C@]12O	µM	=	226
